Target Desc: PI3Kδ (Homo sapiens (Human))
Sequence (O00329 whole entry, species assumed): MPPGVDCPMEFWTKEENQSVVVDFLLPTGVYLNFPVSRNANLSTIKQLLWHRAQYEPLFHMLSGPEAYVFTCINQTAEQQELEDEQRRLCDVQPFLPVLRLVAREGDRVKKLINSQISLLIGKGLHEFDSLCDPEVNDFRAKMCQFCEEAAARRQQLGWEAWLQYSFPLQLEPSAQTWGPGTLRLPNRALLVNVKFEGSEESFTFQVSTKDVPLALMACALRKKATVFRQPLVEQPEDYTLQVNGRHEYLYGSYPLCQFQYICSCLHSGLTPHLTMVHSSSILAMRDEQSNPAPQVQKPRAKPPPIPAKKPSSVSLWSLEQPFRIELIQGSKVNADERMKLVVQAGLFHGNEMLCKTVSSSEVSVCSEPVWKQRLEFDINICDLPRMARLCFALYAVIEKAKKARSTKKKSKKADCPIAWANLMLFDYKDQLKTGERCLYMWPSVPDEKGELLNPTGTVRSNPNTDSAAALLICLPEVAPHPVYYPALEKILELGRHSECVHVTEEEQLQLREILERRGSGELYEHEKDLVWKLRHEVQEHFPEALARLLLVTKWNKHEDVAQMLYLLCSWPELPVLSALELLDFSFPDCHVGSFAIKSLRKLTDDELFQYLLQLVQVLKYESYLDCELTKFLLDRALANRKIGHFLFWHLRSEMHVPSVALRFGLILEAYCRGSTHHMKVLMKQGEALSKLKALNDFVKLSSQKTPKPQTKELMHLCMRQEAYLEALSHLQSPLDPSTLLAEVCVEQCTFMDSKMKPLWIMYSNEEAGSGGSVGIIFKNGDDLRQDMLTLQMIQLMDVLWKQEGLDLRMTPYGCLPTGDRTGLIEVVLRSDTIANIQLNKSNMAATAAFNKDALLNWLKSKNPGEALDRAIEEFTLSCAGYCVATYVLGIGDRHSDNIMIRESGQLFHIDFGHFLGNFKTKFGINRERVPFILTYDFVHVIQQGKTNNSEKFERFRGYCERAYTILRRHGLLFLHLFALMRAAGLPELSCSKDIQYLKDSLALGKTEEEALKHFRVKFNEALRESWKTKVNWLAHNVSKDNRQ
Sequence (P27986 whole entry partner, species assumed): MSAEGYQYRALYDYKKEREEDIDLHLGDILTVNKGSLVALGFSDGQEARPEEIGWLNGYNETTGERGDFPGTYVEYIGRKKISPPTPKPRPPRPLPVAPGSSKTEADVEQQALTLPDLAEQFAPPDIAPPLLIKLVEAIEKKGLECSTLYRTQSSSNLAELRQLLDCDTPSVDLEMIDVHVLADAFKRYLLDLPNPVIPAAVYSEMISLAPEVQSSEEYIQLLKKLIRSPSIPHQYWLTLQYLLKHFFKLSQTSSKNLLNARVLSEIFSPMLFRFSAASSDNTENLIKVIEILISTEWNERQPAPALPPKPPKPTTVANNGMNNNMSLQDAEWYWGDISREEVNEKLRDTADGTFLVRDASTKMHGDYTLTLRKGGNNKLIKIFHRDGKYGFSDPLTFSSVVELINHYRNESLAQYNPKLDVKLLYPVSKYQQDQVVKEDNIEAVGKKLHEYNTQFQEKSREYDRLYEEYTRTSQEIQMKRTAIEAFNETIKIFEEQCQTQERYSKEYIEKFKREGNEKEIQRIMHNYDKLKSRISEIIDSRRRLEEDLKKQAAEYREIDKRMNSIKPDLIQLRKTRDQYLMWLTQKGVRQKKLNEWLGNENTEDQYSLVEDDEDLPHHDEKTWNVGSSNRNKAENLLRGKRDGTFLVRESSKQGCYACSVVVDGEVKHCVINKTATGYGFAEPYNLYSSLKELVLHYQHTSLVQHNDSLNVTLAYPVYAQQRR
pIC50: −log10 of the molar value.
Readout Name: pIC50

Nc1ncc(-c2nc(N3CCOCC3)nc3c(CN4CCN(C(=O)CO)CC4)cc(F)cc23)cn1 : 7.51
COc1ncc(-c2nc(N3CCOCC3)nc3c(CN4CCC(N5CCCCC5)CC4)cc(F)cc23)cc1NS(C)(=O)=O : 7.51
COc1ncc(-c2nc(N3CCOCC3)nc3c(OCCN4CCCCC4)cc(F)cc23)cc1NS(C)(=O)=O : 7.33

(I) COc1ncc(-c2nc(N3CCOCC3)nc3c(O[C@@H]4CCOC4)cc(F)cc23)cc1NS(C)(=O)=O
(II) CC(C)(O)C1CCN(Cc2cnc3c(-c4cncc(NS(C)(=O)=O)c4)nc(N4CCOCC4)cn23)CC1
(III) COc1ncc(-c2nc(N3CCOCC3)nc3c(OC4CC(C(C)(C)O)C4)cc(F)cc23)cc1NS(C)(=O)=O (stereo not drawn)
Please put the entries in order of rising pIC50. Provide the ranking by listing each label in its place in the requested order. II, III, I
(II: 6.62, III: 6.93, I: 7.39)

###

# reported γ/δ (ratio of IC50 values against PI3Kγ to PI3Kδ); entries follow
Target Desc: PI3Kγ (Homo sapiens (Human), UniProt P48736)
Sequence (P48736 whole entry, species assumed): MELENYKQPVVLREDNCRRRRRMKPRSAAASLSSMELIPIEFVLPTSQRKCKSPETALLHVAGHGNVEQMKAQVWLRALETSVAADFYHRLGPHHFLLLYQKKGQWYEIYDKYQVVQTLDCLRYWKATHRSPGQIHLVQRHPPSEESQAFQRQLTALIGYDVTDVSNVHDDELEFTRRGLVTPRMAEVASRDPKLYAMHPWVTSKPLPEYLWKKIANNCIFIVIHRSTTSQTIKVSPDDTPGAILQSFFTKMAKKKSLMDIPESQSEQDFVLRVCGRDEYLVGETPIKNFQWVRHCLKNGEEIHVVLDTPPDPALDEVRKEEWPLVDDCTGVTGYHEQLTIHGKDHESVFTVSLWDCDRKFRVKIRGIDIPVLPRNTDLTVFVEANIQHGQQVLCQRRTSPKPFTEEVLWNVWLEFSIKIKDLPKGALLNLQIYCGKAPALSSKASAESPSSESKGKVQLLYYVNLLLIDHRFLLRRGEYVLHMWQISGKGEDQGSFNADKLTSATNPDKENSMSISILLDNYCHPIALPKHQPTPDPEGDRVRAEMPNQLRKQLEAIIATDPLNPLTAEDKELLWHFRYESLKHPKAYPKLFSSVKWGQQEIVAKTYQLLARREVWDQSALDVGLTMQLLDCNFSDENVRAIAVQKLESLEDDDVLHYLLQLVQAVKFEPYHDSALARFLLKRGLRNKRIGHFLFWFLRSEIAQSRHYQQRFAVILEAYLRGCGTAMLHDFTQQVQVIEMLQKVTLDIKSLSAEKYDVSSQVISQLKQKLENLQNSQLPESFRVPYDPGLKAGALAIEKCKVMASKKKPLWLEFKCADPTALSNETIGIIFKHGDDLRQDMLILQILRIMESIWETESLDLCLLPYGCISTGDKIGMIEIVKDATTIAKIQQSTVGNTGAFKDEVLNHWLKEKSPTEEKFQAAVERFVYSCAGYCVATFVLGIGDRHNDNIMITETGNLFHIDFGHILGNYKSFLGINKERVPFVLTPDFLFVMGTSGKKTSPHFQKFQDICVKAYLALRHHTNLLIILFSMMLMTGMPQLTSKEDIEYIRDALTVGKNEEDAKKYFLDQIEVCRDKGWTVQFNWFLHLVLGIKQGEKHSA
Assay: PI3Kγ enzymatic inhibitory activity IC50 assay
Assay type: biochemical
Condition Info: selectivity ratio
Experimental: 1. Buffer preparation: 50 mM HEPES, pH 7.5, 3 mM MgCl2, 1 mM EGTA, 100 mM NaCl, 0.03% CHAPS. 2. The compound was formulated in 100% DMSO in a concentration gradient, and deposited to a 384-well plate with a final DMSO concentration of 1%. 3. […] 5. Luminescence was read by using Flexstation, and the inhibition rate was calculated as the average value of two tests.

For orientation, consider the following solved cases.
COc1ncc(-c2nc(N3CCOCC3)nc3c(OC4CCC(C(C)(C)O)CC4)cc(F)cc23)cc1NS(C)(=O)=O (stereo not shown) : >129
COc1ncc(-c2nc(N3CCOCC3)c3cc(CN4CCC(N5CCCCC5)CC4)ccc3n2)cc1NS(C)(=O)=O : >29
COc1ncc(-c2nc(N3CCOCC3)nc3c(CN4CCC(N5CCCCC5)CC4)cc(F)cc23)cc1NS(C)(=O)=O : >322

Give recorded γ/δ (ratio of IC50 values against PI3Kγ to PI3Kδ) with PI3Kγ (Homo sapiens (Human), UniProt P48736) for the following compound: COc1ncc(-c2nc(N3CCOCC3)nc3c(OC4CC(C(C)(C)O)C4)cc(F)cc23)cc1NS(C)(=O)=O (stereo not shown) >85

Give recorded γ/δ (ratio of IC50 values against PI3Kγ to PI3Kδ) with PI3Kγ (Homo sapiens (Human), UniProt P48736) for the following compound: COc1ncc(-c2nc(N3CCOCC3)nc3c(OC4CCC(N5CCCCC5)CC4)cc(F)cc23)cc1NS(C)(=O)=O (stereo not shown) [Compound 34] >549

Give recorded γ/δ (ratio of IC50 values against PI3Kγ to PI3Kδ) with PI3Kγ (Homo sapiens (Human), UniProt P48736) for the following compound: COc1ncc(-c2nc(N3CCOCC3)nc3c(CN4CCC(N5CCCCC5=O)CC4)cc(F)cc23)cc1NS(C)(=O)=O >625

Give recorded γ/δ (ratio of IC50 values against PI3Kγ to PI3Kδ) with PI3Kγ (Homo sapiens (Human), UniProt P48736) for the following compound: COc1ncc(-c2nc(N3CCOCC3)nc3c(CN4CCC(C(C)(C)O)CC4)cc(F)cc23)cc1NS(C)(=O)=O >1000
